Consider the following molecules; for each one, report its LD50.
- METHOD_SUMMARY: Acute toxicity, intraperitoneal administration to mice
- Format: in vivo
- STUDY_CONDITIONS: mouse, in vivo, ip, read-out: LD50 (lethal dose causing the death of half of the animals)
One number for each entry, in mg/kg.

MOLECULE | RECORDED_RESULT
Cc1ccc(Cc2cc(C)c(OC3OC[C@@H](O)[C@H](O)[C@H]3O)c(C)c2)cc1 (some centres unmarked) | 630
O=[N+]([O-])c1cc(Cc2ccccc2)ccc1O[C@@H]1OC[C@@H](O)[C@H](O)[C@H]1O | 250
CS(=O)(=O)c1ccc(Cc2ccc(O[C@@H]3OC[C@@H](O)[C@H](O)[C@H]3O)cc2)cc1 | 450
O=[N+]([O-])c1ccc(Cc2ccc(O[C@@H]3OC[C@@H](O)[C@H](O)[C@H]3O)cc2)cc1 | 650

Each molecule below has a reported value. Please supply its LD50.
1. Cc1cc(Cc2ccccc2)ccc1O[C@@H]1OC[C@@H](O)[C@H](O)[C@H]1O
2. O[C@@H]1[C@@H](O)[C@H](Oc2ccc(Cc3ccc(Cl)cc3Cl)cc2)OC[C@H]1O

320
640
